Recorded Kd by entry
# subject-of-test: T1, hGITR.mFc (human)
# T1 construct: soluble dimeric construct with mouse Fc; also called dimeric human GITR
# T1 chain: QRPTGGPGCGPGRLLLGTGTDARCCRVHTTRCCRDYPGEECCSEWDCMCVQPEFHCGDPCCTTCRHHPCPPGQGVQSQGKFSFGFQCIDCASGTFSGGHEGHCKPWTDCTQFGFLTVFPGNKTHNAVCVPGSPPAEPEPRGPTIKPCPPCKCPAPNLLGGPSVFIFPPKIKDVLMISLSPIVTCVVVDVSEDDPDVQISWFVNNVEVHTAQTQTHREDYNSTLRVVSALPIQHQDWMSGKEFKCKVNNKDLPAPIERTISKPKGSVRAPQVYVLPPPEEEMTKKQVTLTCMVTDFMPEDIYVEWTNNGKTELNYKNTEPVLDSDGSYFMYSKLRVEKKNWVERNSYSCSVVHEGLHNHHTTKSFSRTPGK
# assay-comment: SPR 37C, mAb capture
Give the number; nM is assumed, so skip it.

As a guide, the following entries are already answered.
{"binder": "H1H14474P (antibody, human IgG1, V domains shown, human IgG1 (H1H)) VH: QVQLVESGGGVVQPGRSLRLSCAASGFTFSSYGMDWVRQAPGKGLEWVAVIWYPGSNKYYADSVKGRFTVSRDNSKNTLYLQMNSLRAEDTAVYYCARDGELGLDYYSGMDVWGQGTTVTVSS VL: DIQMTQSPSSLSASVGDRVTITCRASQGIRNDLNWYQQKPGKAPKRLINGASSLQSGVPSRFSGSGSGTEFTLTISSLQPEDFATYYCLQLNSYPRTFGQGTKVEIK", "Kd, nM": 0.107}
{"binder": "H4H14476P (antibody, human IgG4, V domains shown, human IgG4 (H4H)) VH: QVQLVESGGGVVQPGRSLRLSCAASGFTFSNYGIHWVRQPPGQGLEWVAVIWYAGSNKFYADSVKGRFTISRDNSKNSAYLQMNSLRAEDTAVYYCARAPLGYYYYGMDVWGQGTTVTVSS VL: DIQMTQSPSSLSASVGDRVTITCRASQGIRNDLGWYQQKPGKAPKRLIYDASSLESGVPSRFSGSGSGTEFTLTISSLQPEDFATYYCLQHNSYPWTFGQGTKVEIK", "Kd, nM": 0.297}

Now look at this one.
Look up and report measured Kd for this entry: H1H14493P (antibody, human IgG1, V domains shown, human IgG1 (H1H)) VH: QVQLVESGGGVVQPGRSLRLSCAASGFNFRSYGMHWVRQAPGKGLEWVAVIWYDGSNKYYADSVKGRFTISRDSSRDTLFLQMNSLRAGDTAVYYCARGGMLGRDYYYGMDVWGQGTTVTVSS VL: DIQMTQSPSSLSASVGDRVTITCRASQGIRNDLGWYQQKPGKAPKRLIYAASSLQSGVPSRFSGSGSGTEFTLTISSLQPEDFATYYCLQHNSYPNTFGQGTKLEIK
0.365
